# test_name: chemical genetic growth profiling, strain panel (AID 1159580);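 further: tested at 20 µM; growth read once vehicle control cultures reached saturation at 30 °C; 1 = growth at the plate median or of vehicle wells; lower values mean less growth of the strain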
# condition_parameters: S. cerevisiae deletion strains, growth OD, locus YLR342W, strain FKS1 (second series)
In all, about 5,500 compounds went through this assay and about 2,000 (36%) were called active. Another 18% or so got no clear call; they are omitted. No stated cut-off is given here; in the data, active means normalized growth mostly below about 0.91 (no sharp cut-off); inconclusive means no clear call, values can overlap the other calls; inactive means mostly above about 0.92. The list shows a part of the results.
Bench note: report the call from Y for active, N for inactive

## Input Write down the call the test reported for this compound. Item: CC(N)CCCC(C)(C)O (configuration not stated)
## Output N

## Input Write down the call the test reported for this compound. Item: NCC1CCC(C(=O)O)CC1 (configuration not stated)
## Output N

## Input Write down the call the test reported for this compound. Item: COc1ccc2c(c1OC)C(=O)O[C@H]2[C@H]1c2cc3c(cc2CCN1C)OCO3
## Output N

## Input Write down the call the test reported for this compound. Item: ClC1=C(Cl)C2(Cl)C3C(Cl)C=CC3C1(Cl)C2(Cl)Cl (configuration not stated)
## Output N

## Input Write down the call the test reported for this compound. Item: CO[C@H]1[C@H](O)[C@H](O[C@H]2CC[C@]3(C)C4CC[C@]5(C)C(C6=CC(=O)OC6)CC[C@]5(O)C4CC[C@@H]3C2)O[C@@H](C)[C@@H]1O (some centres not stated)
## Output N

## Input Write down the call the test reported for this compound. Item: CC(N)C(=O)OC(C)(C)Cc1ccc(Cl)cc1 (configuration not stated)
## Output N

## Input Write down the call the test reported for this compound. Item: S=c1nc[nH]c2nc[nH]c12
## Output N

## Input Write down the call the test reported for this compound. Item: CC(NCCc1ccc(O)cc1)C(O)c1ccc(O)cc1 (configuration not stated)
## Output N

## Input Write down the call the test reported for this compound. Item: CCC(=O)O[C@H]1CCC2C3CCC4=CC(=O)CC[C@]4(C)C3CC[C@@]21C (some centres not stated)
## Output Y

## Input Write down the call the test reported for this compound. Item: CC1CC2C3CCC4=CC(=O)C=C[C@]4(C)[C@@]3(F)[C@@H](O)C[C@]2(C)[C@@]1(O)C(=O)CO (some centres not stated)
## Output N

## Input Write down the call the test reported for this compound. Item: Cc1cc(O)c(C)c(O)c1C(=O)O
## Output N

## Input Write down the call the test reported for this compound. Item: CN1CCCN=C1COC(=O)C(O)(c1ccccc1)C1CCCCC1 (configuration not stated)
## Output N

----------
# test_name: chemical genetic growth profiling, strain panel (AID 1159580);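 further: tested at 20 µM; growth read once vehicle control cultures reached saturation at 30 °C; 1 = growth at the plate median or of vehicle wells; lower values mean less growth of the strain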
# condition_parameters: S. cerevisiae deletion strains, growth OD, locus YIL073C, strain SPO22, hits give low values
Out of some 5,500 compounds screened, about 2,000 (36%) were called active. Not shown: some 18% with an inconclusive outcome. The list shows a part of the results.
Exercise: for every item that follows, state its recorded normalized growth.
Answer using only a numeral; do not append any unit.

## Input Provide normalized growth value for the following compound: CCOC(=O)c1c(C)cc(O)c(C=O)c1O
## Output 0.211

## Input Provide normalized growth value for the following compound: CC(C)OC(=O)C(C)(C)Oc1ccc(C(=O)c2ccc(Cl)cc2)cc1
## Output 0.741

## Input Provide normalized growth value for the following compound: COCCc1ccc(OCC(O)CNC(C)C)cc1 (stereo unspecified)
## Output 1.04

## Input Provide normalized growth value for the following compound: CC(=O)OC(C)(C)[C@@H]1Cc2cc3ccc(=O)oc3cc2O1
## Output 1.04

## Input Provide normalized growth value for the following compound: CCOC(=O)C(Cc1ccc(O)cc1)NC(C)=O (stereo unspecified)
## Output 1

## Input Provide normalized growth value for the following compound: CC(=O)N[C@@H](CC(C)C)C(=O)O
## Output 0.849

## Input Provide normalized growth value for the following compound: NCC1CCC(C(=O)O)CC1 (stereo unspecified)
## Output 0.909

## Input Provide normalized growth value for the following compound: CN1CCC(=C2c3ccccc3CC(=O)c3sccc32)CC1
## Output 1.06

## Input Provide normalized growth value for the following compound: OCCN1C[C@@H](O)[C@@H](O)C(O)C1CO (stereo partly specified)
## Output 1.03

## Input Provide normalized growth value for the following compound: CC1=C(/C=C/C(C)=C/C=C/C(C)=C/C=C/C=C(C)/C=C/C=C(C)/C=C/C23OC2(C)CC(O)CC3(C)C)C(C)(C)CC(O)C1 (stereo unspecified)
## Output 1.1

## Input Provide normalized growth value for the following compound: C[C@]12CC(=O)C3C(CC[C@@H]4C[C@H](O)CC[C@]34C)C1CC[C@]2(O)C(=O)CO (stereo partly specified)
## Output 1.03

## Input Provide normalized growth value for the following compound: CCOC(=O)c1c(C)cc(O)c(C)c1O
## Output 1.02

## Input Provide normalized growth value for the following compound: CC(N)C(=O)OC(C)(C)Cc1ccc(Cl)cc1 (stereo unspecified)
## Output 1.02

## Input Provide normalized growth value for the following compound: CCCCCCCCCCCCCCCC(=O)OC/C=C(C)/C=C/C=C(C)/C=C/C1=C(C)CCCC1(C)C
## Output 0.879

## Input Provide normalized growth value for the following compound: CCC(C)C(=O)O[C@H]1[C@H](O)C2C(CN3CC(C)CCC3[C@@]2(C)O)C2C[C@]34O[C@]5(O)C(OC(=O)C(C)(O)C(C)O)CC[C@@]3(C)C5C(OC(C)=O)[C@@H](OC(C)=O)C4[C@@]21O (stereo partly specified)
## Output 1.02

## Input Provide normalized growth value for the following compound: CC(=O)c1c(O)c(C)c(O)c2c1oc1c(C(C)=O)c(O)c(C)c(O)c12
## Output 0.942

----------
# test_name: chemical genetic growth profiling, strain panel (AID 1159580);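 further: tested at 20 µM; growth read once vehicle control cultures reached saturation at 30 °C; 1 = growth at the plate median or of vehicle wells; lower values mean less growth of the strain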
# condition_parameters: S. cerevisiae deletion strains, growth OD, locus YGL227W, strain vid30, hits give low values
The whole screen tested about 5,500 compounds, of which about 2,000 (36%) were called active. Not shown: some 18% with an inconclusive outcome. Some of the results follow.
Exercise: for every item that follows, state its recorded normalized growth.
Answer using only a numeral; do not append any unit.

## Input Provide normalized growth value for the following compound: COC1=CC(=O)C[C@@H](C)[C@]12Oc1c(Cl)c(OC)cc(OC)c1C2=O
## Output 0.978

## Input Provide normalized growth value for the following compound: CN1CCC(=C2c3ccccc3CC(=O)c3sccc32)CC1
## Output 0.984

## Input Provide normalized growth value for the following compound: Cc1cc(O)c(C)c(O)c1C(=O)O
## Output 0.995

## Input Provide normalized growth value for the following compound: COc1ccc2c(c1OC)C(=O)O[C@@H]2[C@H]1c2cc3c(cc2CCN1C)OCO3
## Output 0.994

## Input Provide normalized growth value for the following compound: OCCN1C[C@@H](O)[C@@H](O)C(O)C1CO (stereo partly specified)
## Output 1.01

## Input Provide normalized growth value for the following compound: O=C(O)C1(O)C[C@@H](O)C(O)[C@H](O)C1 (stereo partly specified)
## Output 0.979

## Input Provide normalized growth value for the following compound: CN1CCc2cc3c(cc2[C@H]1C1OC(=O)c2c1ccc1c2OCO1)OCO3 (stereo partly specified)
## Output 0.976

## Input Provide normalized growth value for the following compound: COc1cc2c(cc1OC)[C@@H]1C(=O)c3ccc(O)c(CC=C(C)C)c3O[C@@H]1CO2
## Output 0.997

## Input Provide normalized growth value for the following compound: Cc1[nH]c(C)c(Cl)c(=O)c1Cl
## Output 0.996

## Input Provide normalized growth value for the following compound: CC(=O)OCC(=O)[C@@]1(O)CCC2C3CCC4=CC(=O)CC[C@]4(C)C3C(=O)C[C@@]21C (stereo partly specified)
## Output 0.983

## Input Provide normalized growth value for the following compound: c1ccc(N=Nc2ccccc2)cc1
## Output 0.992

## Input Provide normalized growth value for the following compound: COc1cc2c(cc1OC)[C@@H]1C(=O)c3ccc4c(c3O[C@@H]1CO2)C=CC(C)(C)O4
## Output 1

## Input Provide normalized growth value for the following compound: C[C@H]1CC2C([C@@H](O)C[C@@]3(C)C2CC[C@]3(O)C(=O)CO)[C@@]2(C)C=CC(=O)C=C12 (stereo partly specified)
## Output 0.992

## Input Provide normalized growth value for the following compound: COc1cc(O)c(C(=O)/C=C/c2ccc(O)c(OC)c2)c(OC)c1
## Output 0.987

## Input Provide normalized growth value for the following compound: COc1cc2c(cc1OC)[C@@H]1C(=O)c3ccc4oc(C(C)C)cc4c3O[C@@H]1CO2
## Output 0.982

## Input Provide normalized growth value for the following compound: COc1ccc2c(c1OC)C(=O)O[C@H]2[C@H]1c2cc3c(cc2CCN1C)OCO3
## Output 0.993

----------
Exercise: for every item that follows, state its recorded normalized growth.
# test_name: chemical genetic growth profiling, strain panel (AID 1159580);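 further: tested at 20 µM; growth read once vehicle control cultures reached saturation at 30 °C; 1 = growth at the plate median or of vehicle wells; lower values mean less growth of the strain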
# condition_parameters: S. cerevisiae deletion strains, growth OD, locus YLL041C, strain sdh2, hits give low values
The whole screen tested about 5,500 compounds, of which about 2,000 (36%) were called active. Not shown: some 18% with an inconclusive outcome. Some of the results follow.
Answer using only a numeral; do not append any unit.

## Input Provide normalized growth value for the following molecule: CCCCCCNC(=O)n1cc(F)c(=O)[nH]c1=O
## Output 0.979

## Input Provide normalized growth value for the following molecule: COP(=O)(OC)OC=C(Cl)Cl
## Output 1

## Input Provide normalized growth value for the following molecule: CN[C@@H](C)[C@@H](O)c1ccccc1
## Output 1

## Input Provide normalized growth value for the following molecule: COc1cc2c(cc1OC)[C@@H]1C(=O)c3ccc4oc(C(C)C)cc4c3O[C@@H]1CO2
## Output 1.02

## Input Provide normalized growth value for the following molecule: CC(C)(O)[C@@H]1[C@H]2OC(=O)[C@@H]1[C@]1(O)C[C@H]3O[C@]34C(=O)O[C@H]2[C@]14C
## Output 1.01

## Input Provide normalized growth value for the following molecule: O=C(O)c1c2ccccc2cc2ccccc12
## Output 0.992

## Input Provide normalized growth value for the following molecule: CCOC(=O)c1c(C)c(Cl)c(O)c(Cl)c1O
## Output 0.635

## Input Provide normalized growth value for the following molecule: COc1ccc2c(C)cc(=O)oc2c1
## Output 0.993

## Input Provide normalized growth value for the following molecule: Cc1cc(O)c(C)c(O)c1C(=O)O
## Output 0.999

## Input Provide normalized growth value for the following molecule: CC(=O)OC(C)(C)[C@@H]1Cc2cc3ccc(=O)oc3cc2O1
## Output 0.984

## Input Provide normalized growth value for the following molecule: COc1ccc2c3c1O[C@H]1C[C@@H](O)C=C[C@@]31CCN(C)C2
## Output 0.999

## Input Provide normalized growth value for the following molecule: CC(NCCc1ccc(O)cc1)C(O)c1ccc(O)cc1 (stereo not given)
## Output 0.983

## Input Provide normalized growth value for the following molecule: N=c1ccn2c(n1)O[C@@H]1C2O[C@H](CO)[C@H]1O (stereo not given in full)
## Output 0.992

## Input Provide normalized growth value for the following molecule: C[N+](C)(C)CCOC(N)=O
## Output 1.01

## Input Provide normalized growth value for the following molecule: O=C(O)c1cc2ccccc2[nH]1
## Output 0.989

## Input Provide normalized growth value for the following molecule: COc1ccc2c(c1)OCc1c-2oc2cc(OC)ccc12
## Output 0.972

## Input Provide normalized growth value for the following molecule: CC(=O)O[C@H]1[C@@H]2[C@@H](OC(=O)Cc3ccccc3)[C@@H](C)C[C@]2(OC(C)=O)C(=O)/C(C)=C/[C@H]2[C@H](CC[C@@]13CO3)C2(C)C
## Output 0.97

## Input Provide normalized growth value for the following molecule: CC(C[N+](C)(C)C)OC(N)=O (stereo not given)
## Output 1.04

## Input Provide normalized growth value for the following molecule: CC1=C(CC(=O)O)c2cc(F)ccc2/C1=C\c1ccc(S(C)=O)cc1 (stereo not given)
## Output 1.02

## Input Provide normalized growth value for the following molecule: COc1cc2c(cc1OC)[C@@H]1C(=O)c3ccc(OC)c(CC=C(C)C)c3O[C@@H]1CO2
## Output 1.02
